Reference source: paper PMC8809517

Please provide measured Kd for the entries that follow.
# study.system: T1, GFP-9S library array, motif 4 ND N98K;D124Q (synthetic construct, N98K;D124Q)
# T1 chain: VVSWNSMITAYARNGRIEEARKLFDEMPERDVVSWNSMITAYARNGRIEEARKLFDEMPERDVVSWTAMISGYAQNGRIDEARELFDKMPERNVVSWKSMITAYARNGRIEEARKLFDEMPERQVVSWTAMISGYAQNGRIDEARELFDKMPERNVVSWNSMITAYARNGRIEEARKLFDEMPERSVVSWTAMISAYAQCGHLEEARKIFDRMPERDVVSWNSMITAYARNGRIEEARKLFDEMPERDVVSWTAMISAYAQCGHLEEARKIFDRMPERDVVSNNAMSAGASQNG
# assay.notes: high-throughput RNA pulldown from lysate on Ni-NTA beads; HRP: 50 mM Tris pH 8, 150 mM NaCl, 1 mM beta-mercaptoethanol, 50 ug/ml BSA, 3 ug/ml yeast RNA, 0.5% heparin; ITC and FP: Tris pH 8, 200 mM KCl, 5% glycerol; MST: 50 mM Tris pH 8, 200 mM NaCl, 1 mM DTT, BSA, heparin, 0.05% Tween 20
# condition.set: tags: N-terminal His-eGFP; label: 5' IRDye 800CW
Answers are plain numbers, in nM.

>>> measured("AUUAUACGUGA (ssRNA) [IR-rpoA-U]")
63.7

Moving on to the next binder.
Kd for AUUAAACGUGA (ssRNA) [IR-rpoA-A] ?
110
